Documented DC50 across a set of compounds
# assay_target: CK1α (Homo sapiens)
# Construct: HEK293 clonal lines with CRISPR KI HiBiT tag on CSNK1A1
# Sequence (P48729 whole entry): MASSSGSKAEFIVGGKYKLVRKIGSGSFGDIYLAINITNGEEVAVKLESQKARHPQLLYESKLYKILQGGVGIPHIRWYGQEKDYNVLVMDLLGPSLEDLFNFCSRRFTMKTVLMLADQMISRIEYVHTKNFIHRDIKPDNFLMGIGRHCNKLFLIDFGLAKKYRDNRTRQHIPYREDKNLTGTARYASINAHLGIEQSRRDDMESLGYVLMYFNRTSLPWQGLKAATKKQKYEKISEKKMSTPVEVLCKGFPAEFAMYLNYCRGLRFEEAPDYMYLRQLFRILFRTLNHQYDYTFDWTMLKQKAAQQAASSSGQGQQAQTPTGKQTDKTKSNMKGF
# Sequence (Q96SW2 whole entry, further chain): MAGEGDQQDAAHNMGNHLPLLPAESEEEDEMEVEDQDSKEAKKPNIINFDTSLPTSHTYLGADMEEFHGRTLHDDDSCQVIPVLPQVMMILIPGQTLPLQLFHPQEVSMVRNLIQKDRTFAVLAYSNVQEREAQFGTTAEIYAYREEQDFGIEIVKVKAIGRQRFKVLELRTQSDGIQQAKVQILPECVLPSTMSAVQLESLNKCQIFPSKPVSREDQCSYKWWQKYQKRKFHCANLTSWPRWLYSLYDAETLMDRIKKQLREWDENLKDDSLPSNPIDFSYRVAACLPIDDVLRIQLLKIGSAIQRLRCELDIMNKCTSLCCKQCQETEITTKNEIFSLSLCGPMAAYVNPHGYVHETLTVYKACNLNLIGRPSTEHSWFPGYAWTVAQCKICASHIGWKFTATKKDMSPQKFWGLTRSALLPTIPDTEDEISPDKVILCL
# Sequence (Q16531 2-1140 partner limits assumed): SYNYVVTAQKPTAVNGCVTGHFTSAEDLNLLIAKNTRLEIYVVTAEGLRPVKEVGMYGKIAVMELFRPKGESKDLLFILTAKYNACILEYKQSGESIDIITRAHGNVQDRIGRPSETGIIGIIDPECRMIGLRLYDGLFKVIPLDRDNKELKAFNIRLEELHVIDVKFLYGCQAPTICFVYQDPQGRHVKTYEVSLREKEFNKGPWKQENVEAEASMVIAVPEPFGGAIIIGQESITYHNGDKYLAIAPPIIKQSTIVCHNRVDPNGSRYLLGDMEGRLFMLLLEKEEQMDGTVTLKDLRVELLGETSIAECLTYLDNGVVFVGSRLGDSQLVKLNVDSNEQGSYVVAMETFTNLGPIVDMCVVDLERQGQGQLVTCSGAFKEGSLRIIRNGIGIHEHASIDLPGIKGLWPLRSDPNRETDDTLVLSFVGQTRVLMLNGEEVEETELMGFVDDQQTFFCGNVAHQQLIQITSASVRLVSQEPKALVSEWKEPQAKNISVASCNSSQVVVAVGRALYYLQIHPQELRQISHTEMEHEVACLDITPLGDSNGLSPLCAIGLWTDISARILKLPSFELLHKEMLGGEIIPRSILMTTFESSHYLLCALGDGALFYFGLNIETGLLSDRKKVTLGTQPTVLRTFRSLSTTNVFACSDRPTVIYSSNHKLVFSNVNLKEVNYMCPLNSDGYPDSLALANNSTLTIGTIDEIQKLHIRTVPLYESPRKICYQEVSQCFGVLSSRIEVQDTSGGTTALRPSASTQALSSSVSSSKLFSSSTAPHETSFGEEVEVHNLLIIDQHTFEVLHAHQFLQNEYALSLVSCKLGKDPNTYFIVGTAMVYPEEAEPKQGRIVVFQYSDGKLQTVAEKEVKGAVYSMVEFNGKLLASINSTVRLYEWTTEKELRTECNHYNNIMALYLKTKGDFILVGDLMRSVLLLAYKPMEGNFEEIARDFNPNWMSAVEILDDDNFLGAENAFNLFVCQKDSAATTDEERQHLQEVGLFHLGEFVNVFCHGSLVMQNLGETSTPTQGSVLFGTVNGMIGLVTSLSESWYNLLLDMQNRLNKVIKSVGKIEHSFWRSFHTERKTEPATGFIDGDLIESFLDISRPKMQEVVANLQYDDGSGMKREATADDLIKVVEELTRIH
# experiment_notes: CK1α NanoBit Assay (HiBiT-tagged CSNK1A1, HEK293 clonal lines)
# Assay type: cell-based
# experimental_context: HEK293 HiBiT-CSNK1A1/LgBiT cells, 24 h incubation

Recorded result, O=C1CCC(N2Cc3cc(NC(=O)N4CCC(C(F)(F)F)c5ccccc54)ccc3C2=O)C(=O)N1 (stereo not shown) [Compound 127] , DC50: < 0.1 µM

# compound CC(C)(C)c1ccc2c(c1)CCN(C(=O)Nc1ccc3c(c1)CN(C1CCC(=O)NC1=O)C3=O)C2 (stereo not shown) [Compound 194] ; its DC50 = < 0.1 µM

Value of measured DC50 for the entry N#Cc1cccc2c1CCN(C(=O)Nc1ccc3c(c1)CN(C1CCC(=O)NC1=O)C3=O)C2 (stereo not shown) [Compound 176] : 0.1 to 1 µM

Now for a further compound.
N#Cc1ccc2c(c1)CN(C(=O)Nc1ccc3c(c1)CN(C1CCC(=O)NC1=O)C3=O)C2 (stereo not shown) [Compound 133] yielded DC50 of < 0.1 µM

Reference source: patent US20250171420A1
